Recorded AC50 by entry
- TESTED TARGET: Sodium-dependent noradrenaline transporter (Homo sapiens); further: assay procedure not described here
- Sequence (P23975 whole entry): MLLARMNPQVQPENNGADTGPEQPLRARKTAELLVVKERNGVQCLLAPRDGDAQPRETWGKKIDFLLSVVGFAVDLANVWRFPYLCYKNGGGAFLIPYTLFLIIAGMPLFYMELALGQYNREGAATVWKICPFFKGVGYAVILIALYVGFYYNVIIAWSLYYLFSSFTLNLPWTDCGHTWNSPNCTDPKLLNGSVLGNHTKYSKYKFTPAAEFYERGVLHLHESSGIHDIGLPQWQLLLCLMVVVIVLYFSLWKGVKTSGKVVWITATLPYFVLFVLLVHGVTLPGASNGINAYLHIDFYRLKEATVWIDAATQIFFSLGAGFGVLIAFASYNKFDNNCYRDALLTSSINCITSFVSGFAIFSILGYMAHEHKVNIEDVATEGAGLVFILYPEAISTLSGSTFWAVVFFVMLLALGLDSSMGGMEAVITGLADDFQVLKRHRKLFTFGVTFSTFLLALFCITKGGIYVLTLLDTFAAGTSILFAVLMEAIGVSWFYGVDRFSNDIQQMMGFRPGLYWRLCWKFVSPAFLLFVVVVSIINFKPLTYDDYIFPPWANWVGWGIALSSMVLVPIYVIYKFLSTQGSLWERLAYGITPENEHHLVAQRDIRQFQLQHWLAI
Answer format: numeric, µM implied, no suffix.

[[record]]
molecule = "CCN(CCCc1ccccc1)CCCc1ccccc1"
property_label = "AC50"
endpoint_result = 1.15


-- ask Find the measured AC50: item FC(F)(F)c1ccc(CNc2ccc(Cc3c[nH]c4ncc(Cl)cc34)cn2)cn1 , target or system Sodium-dependent noradrenaline transporter (Homo sapiens). Further: assay procedure not described here.
-- reply 3.96

-- ask Find the measured AC50: item CC[C@H](C)C[C@H](C)CCCCCCCCC(=O)N[C@H]1C[C@@H](O)[C@@H](NCCN)NC(=O)[C@@H]2[C@@H](O)CCN2C(=O)[C@H]([C@H](O)CCN)NC(=O)[C@H]([C@H](O)[C@@H](O)c2ccc(O)cc2)NC(=O)[C@@H]2C[C@@H](O)CN2C(=O)[C@H]([C@@H](C)O)NC1=O , target or system Sodium-dependent noradrenaline transporter (Homo sapiens). Further: assay procedure not described here.
-- reply 5.03

-- ask Find the measured AC50: item CC(CCc1ccccc1)NCC(O)c1ccc(O)c(C(N)=O)c1 (configuration not stated) , target or system Sodium-dependent noradrenaline transporter (Homo sapiens). Further: assay procedure not described here.
-- reply 4.04

-- ask Find the measured AC50: item CN(C)CCOC(c1ccccc1)c1ccc(Br)cc1 (configuration not stated) [BROMODIPHENHYDRAMINE] , target or system Sodium-dependent noradrenaline transporter (Homo sapiens). Further: assay procedure not described here.
-- reply 4.22

---

Reported AC50, Beta-2 adrenergic receptor (Homo sapiens, UniProt P07550).

Reference set (10 entries):
[[record]]
compound = "CC(=O)OCC(=O)[C@@]1(O)[C@H](C)C[C@H]2[C@@H]3CCC4=CC(=O)C=C[C@]4(C)[C@@]3(F)[C@@H](O)C[C@@]21C [DEXAMETHASONE ACETATE]"
tested_target = "Beta-2 adrenergic receptor (Homo sapiens, UniProt P07550)"
property_label = "AC50"
endpoint_result = "> 10 µM"

[[record]]
compound = "CC(C)COCC(CN(Cc1ccccc1)c1ccccc1)N1CCCC1 (stereo unspecified)"
tested_target = "Beta-2 adrenergic receptor (Homo sapiens, UniProt P07550)"
property_label = "AC50"
endpoint_result = "> 30 µM"

[[record]]
compound = "CC(C)[C@H](N)C(=O)OCC(CO)OCn1cnc2c(=O)nc(N)[nH]c21 (stereo partly specified)"
tested_target = "Beta-2 adrenergic receptor (Homo sapiens, UniProt P07550)"
property_label = "AC50"
endpoint_result = "> 30 µM"

[[record]]
compound = "CC(=O)SC[C@@H](C)C(=O)N1CCC[C@H]1C(=O)N[C@@H](Cc1ccccc1)C(=O)O"
tested_target = "Beta-2 adrenergic receptor (Homo sapiens, UniProt P07550)"
property_label = "AC50"
endpoint_result = "> 30 µM"

[[record]]
compound = "C[C@H](Cc1ccc(O)c(O)c1)[C@@H](C)Cc1ccc(O)c(O)c1"
tested_target = "Beta-2 adrenergic receptor (Homo sapiens, UniProt P07550)"
property_label = "AC50"
endpoint_result = "> 10 µM"

[[record]]
compound = "CCC(=O)O[C@H]1CC[C@H]2[C@@H]3CCC4=CC(=O)CC[C@]4(C)[C@H]3CC[C@]12C [TESTOSTERONE PROPIONATE]"
tested_target = "Beta-2 adrenergic receptor (Homo sapiens, UniProt P07550)"
property_label = "AC50"
endpoint_result = "> 10 µM"

[[record]]
compound = "CC(N)C(O)c1ccccc1 (stereo unspecified)"
tested_target = "Beta-2 adrenergic receptor (Homo sapiens, UniProt P07550)"
property_label = "AC50"
endpoint_result = "> 10 µM"

[[record]]
compound = "CO[C@H]1/C=C/O[C@@]2(C)Oc3c(C)c(O)c4c(O)c(c(/C=N/N5CCN(C)CC5)c(O)c4c3C2=O)NC(=O)/C(C)=C\\C=C\\[C@H](C)[C@H](O)[C@@H](C)[C@@H](O)[C@@H](C)[C@H](OC(C)=O)[C@@H]1C"
tested_target = "Beta-2 adrenergic receptor (Homo sapiens, UniProt P07550)"
property_label = "AC50"
endpoint_result = "29 µM"

[[record]]
compound = "Nc1cc(-c2ccncc2)c[nH]c1=O"
tested_target = "Beta-2 adrenergic receptor (Homo sapiens, UniProt P07550)"
property_label = "AC50"
endpoint_result = "> 10 µM"

[[record]]
compound = "Nc1ccc(S(=O)(=O)Nc2nccs2)cc1"
tested_target = "Beta-2 adrenergic receptor (Homo sapiens, UniProt P07550)"
property_label = "AC50"
endpoint_result = "> 10 µM"


-- ask Name the recorded AC50 for CCCC(CCC)C(=O)O .
-- reply > 10 µM

-- ask Name the recorded AC50 for O=C(O)c1ccccc1Nc1cc(Cl)ccc1C(=O)O .
-- reply > 30 µM

-- ask Name the recorded AC50 for C[C@]12CCC(=O)C(O)=C1CC[C@@H]1[C@@H]2CC[C@]2(C)C(=O)CC[C@@H]12 .
-- reply > 30 µM

-- ask Name the recorded AC50 for C/C(=C\C(=O)OCCCCCCCCC(=O)O)C[C@@H]1OC[C@H](C[C@@H]2O[C@H]2[C@@H](C)[C@H](C)O)[C@@H](O)[C@H]1O .
-- reply > 10 µM

-- ask Name the recorded AC50 for CN1C(C(=O)Nc2ccccn2)=C(O)c2ccccc2S1(=O)=O .
-- reply > 10 µM

-- ask Name the recorded AC50 for C[C@]12C=CC(=O)N[C@@H]1CC[C@@H]1[C@@H]2CC[C@]2(C)[C@@H](C(=O)Nc3cc(C(F)(F)F)ccc3C(F)(F)F)CC[C@@H]12 [DUTASTERIDE] .
-- reply > 10 µM
